Some molecules, each annotated with its measured melting point.

These solved cases illustrate the format of a correct answer.
- chemical string: "OCCn1nc(Nc2cc(Cl)ccc2Cl)nc1-c1ccccc1"
  observed: "140.5 to 142 °C"
- chemical string: "COc1ccc(-c2nc(Nc3cccc(OC(F)(F)F)c3)nn2CC(=O)NC(C)C)cc1OC"
  observed: "182.5 to 186.1 °C"

Now look at this one.
Lab note: COc1ccc(Cl)c(Nc2nc(-c3ccc4c(c3)OCCO4)n(CCC(=O)N(C)C)n2)c1 gave melting point of 134.7 to 136.7 °C

---

Some compounds, each annotated with its measured melting point.

- compound: "CN(C)C(=O)CCn1nc(Nc2cccc(C(F)(F)F)c2)nc1-c1ccncc1 [Compound 4]"
  observed: "164.2 to 174.2 °C"
- compound: "CNC(=O)Cn1nc(Nc2cccc(C(F)(F)F)c2)nc1-c1ccc(Cl)cc1Cl [Compound 13]"
  observed: "179.9 to 182.1 °C"

Lab note: CN(C)C(=O)CCn1nc(Nc2cccc(C(F)(F)F)c2)nc1-c1ccc2c(c1)OCCO2 [Compound 6] gave melting point of 195.7 to 196.6 °C

---

Some compounds, each annotated with its measured melting point.

Lab note: OCCn1nc(Nc2cccc(C(F)(F)F)c2)nc1-c1cccnc1 [Compound 16] gave melting point of 158.2 to 159 °C

---

- system under test: hα7-wt nAChR (Homo sapiens)
- Construct: expressed in transfected cells
- Sequence (P36544 23-502): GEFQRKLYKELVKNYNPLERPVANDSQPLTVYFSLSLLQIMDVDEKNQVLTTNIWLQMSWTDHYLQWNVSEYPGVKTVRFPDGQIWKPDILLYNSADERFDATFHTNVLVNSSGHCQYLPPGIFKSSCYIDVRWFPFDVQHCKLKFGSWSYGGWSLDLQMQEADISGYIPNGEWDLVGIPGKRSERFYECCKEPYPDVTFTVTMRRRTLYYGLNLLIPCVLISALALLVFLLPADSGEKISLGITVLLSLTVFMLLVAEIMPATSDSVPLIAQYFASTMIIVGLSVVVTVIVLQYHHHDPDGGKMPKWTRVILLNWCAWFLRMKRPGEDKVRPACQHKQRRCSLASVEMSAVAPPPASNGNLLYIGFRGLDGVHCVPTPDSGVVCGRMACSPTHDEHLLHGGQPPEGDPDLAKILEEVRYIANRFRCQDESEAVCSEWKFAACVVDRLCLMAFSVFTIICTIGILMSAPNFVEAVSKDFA
- test: Ca2+ flux imaging (FDSS) (Protocol B), PAM activity with choline as agonist
- Format: cell-based
- protocol conditions: "<5" = no top plateau at maximal concentration
pEC50: −log10 of the molar value.
readout type: pEC50

These solved cases illustrate the format of a correct answer.
- chemical string: "CNC(=O)c1ccc(-c2nc(Nc3ccc(F)c(F)c3)nn2C[C@H](C)O)cn1"
  pEC50: "< 5.00"
- chemical string: "CNC(=O)Cn1nc(Nc2ccc(F)c(C(F)(F)F)c2)nc1-c1ccc(NCCOC)nc1"
  pEC50: "< 5.00"

Now look at this one.
Lab note: CNC(=O)Cn1nc(Nc2cc(F)c(F)c(NC)c2)nc1-c1ccnc(NC)c1 gave pEC50 of < 5.00

---

Some compounds, each annotated with its measured melting point.

- chemical string: "OCCn1nc(Nc2cc(Cl)ccc2Cl)nc1-c1ccncc1"
  observed: "163.4 to 165.2 °C"
- chemical string: "COCCNC(=O)Cn1nc(Nc2cccc(C(F)(F)F)c2)nc1-c1ccncc1"
  observed: "184.2 to 188.1 °C"
- chemical string: "OCCn1nc(Nc2cccc(C(F)(F)F)c2)nc1-c1ccc2c(c1)OCCO2"
  observed: "188.3 to 190.3 °C"

Lab note: CC(C)NC(=O)Cn1nc(Nc2cccc(C(F)(F)F)c2)nc1-c1ccc2c(c1)OCCO2 gave melting point of 213.9 to 215 °C

Lab note: NC(=O)Cn1nc(Nc2cccc(C(F)(F)F)c2)nc1-c1ccncc1 gave melting point of 271 to 272.1 °C

Lab note: CNC(=O)Cn1nc(Nc2cccc(C(F)(F)F)c2)nc1-c1ccncc1 gave melting point of 212.9 to 214 °C
